System: Miscellaneous (Salmonella, Shigella, Citrobacter)
ASSAY_REMARKS: microbe, parasite or virus in culture
CONDITION_DESCRIPTION: read-out: Geometric Mean MIC
Listed below: MIC values for each entry.
Express it in µg/mL; write the number only.

Recorded results for 4 compounds are shown here.
| COMPOUND | MIC (µg/mL) |
| --- | --- |
| Cn1nnnc1SCC1=C(C(=O)O)N2C(=O)[C@@H](NC(=O)[C@H](O)c3ccccc3)[C@H]2SC1 [Cefamandole, reference compound] | 0.3 |
| CNCc1ccccc1CC(=O)N[C@@H]1C(=O)N2C(C(=O)O)=C(CSc3ccc4nn(CC(=O)O)c(=O)n4n3)CS[C@H]12 | 0.4 |
| NCc1ccsc1CC(=O)N[C@@H]1C(=O)N2C(C(=O)O)=C(CSc3ccc4nn(CC(=O)O)c(=O)n4n3)CS[C@H]12 | 0.9 |
| CNCc1ccsc1CC(=O)N[C@@H]1C(=O)N2C(C(=O)O)=C(CSc3ccc4nn(CC(=O)O)c(=O)n4n3)CS[C@H]12 | 0.4 |

Lab note: next compound to report on.
Problem: # MIC lookup, item NCc1ccccc1CC(=O)N[C@@H]1C(=O)N2C(C(=O)O)=C(CSc3ccc4nn(CC(=O)O)c(=O)n4n3)CS[C@H]12
Solution: 0.7
